Catalogue of PHOSPHORUS values
# Species on record: Rattus norvegicus
# procedure-text: DrugMatrix - Regimen: Daily Repeat
# Assay type: toxicity, organism-based, Sprague-Dawley
# Set-up: regimen Daily Repeat, gender Male, age 6-8 weeks
# measurement-parameters: in vivo, po, 100 mg/kg, 72 h, tissue Plasma, route oral GAVAGE, dose level Low, time 3 day, vehicle .5 % CMC
measurement-kind: PHOSPHORUS (mg/dL)

1. C#C[C@]1(O)CC[C@H]2[C@@H]3CCC4=Cc5oncc5C[C@]4(C)[C@H]3CC[C@@]21C; 12.07
2. CC=Cc1ccc(O)c(OC)c1; 11.33
3. Nc1nc2c(c(=O)[nH]1)N(C=O)C(CNc1ccc(C(=O)N[C@@H](CCC(=O)O)C(=O)O)cc1)CN2 (some centres undefined); 14.03
4. CC[C@]1(O)CC[C@H]2[C@@H]3CCC4=CCCC[C@@H]4[C@H]3CC[C@@]21C; 12.4

----------
Catalogue of MEAN CORPUSCULAR HEMOGLOBIN values
# Organism: Rattus norvegicus
# procedure-text: DrugMatrix - Regimen: Daily Repeat
# Format: toxicity, organism-based, Sprague-Dawley
# Set-up: regimen Daily Repeat, gender Male, age 6-8 weeks
# measurement-parameters: in vivo, po, 0 mg/kg, 72 h, tissue Blood, route oral GAVAGE, dose level Control, time 3 day, vehicle .5 % CMC
measurement-kind: MEAN CORPUSCULAR HEMOGLOBIN

1) CC(=O)O[C@]1(C(C)=O)CC[C@H]2[C@@H]3C=C(Cl)C4=CC(=O)[C@@H]5C[C@@H]5[C@]4(C)[C@H]3CC[C@@]21C [CYPROTERONE ACETATE]; 25.1 pg
2) O=c1cc(-c2ccccc2)oc2ccc3ccccc3c12; 20.2 pg
3) C[C@]12C/C(=C/O)C(=O)C[C@@H]1CC[C@@H]1[C@@H]2CC[C@@]2(C)[C@H]1CC[C@]2(C)O; 19.72 pg
4) C=C(CC)C(=O)c1ccc(OCC(=O)O)c(Cl)c1Cl; 23.58 pg

----------
# Organism: Rattus norvegicus
# procedure-text: DrugMatrix - Regimen: Daily Repeat
# Type: toxicity, organism-based, Sprague-Dawley
# Set-up: regimen Daily Repeat, gender Male, age 6-8 weeks
# measurement-parameters: in vivo, po, 0 mg/kg, […], tissue Blood, route oral GAVAGE, dose level Control, time 28 day, vehicle .5 % CMC
measurement-kind: ABSOLUTE BASOPHIL (cells/µL)

1) O=c1cc(-c2ccccc2)oc2ccc3ccccc3c12; 150
2) Clc1cc2c(cc1Cl)Oc1cc(Cl)c(Cl)cc1O2; 150

----------
# Species on record: Rattus norvegicus
# procedure-text: DrugMatrix - Regimen: Daily Repeat
# Type: toxicity, organism-based, Sprague-Dawley
# Design: regimen Daily Repeat, gender Male, age 6-8 weeks
# measurement-parameters: in vivo, po, 0 mg/kg, 120 h, tissue Plasma, route oral GAVAGE, dose level Control, time 5 day, vehicle .5 % CMC
Catalogue of BLOOD UREA NITROGEN values
measurement-kind: BLOOD UREA NITROGEN (mg/dL)

1. CN1C(=O)CN=C(c2ccccc2)c2cc(Cl)ccc21 [DIAZEPAM]; 16.67
2. CC(C(=O)O)c1ccc(-c2ccccc2)c(F)c1 (stereo not given) [FLURBIPROFEN]; 20
3. CC(=O)O[C@]1(C(C)=O)CC[C@H]2[C@@H]3C=C(Cl)C4=CC(=O)[C@@H]5C[C@@H]5[C@]4(C)[C@H]3CC[C@@]21C [CYPROTERONE ACETATE]; 17
4. COc1ccc(/C=C/C(=O)Nc2ccccc2C(=O)O)cc1OC; 20
5. CCCCC1C(=O)N(c2ccccc2)N(c2ccccc2)C1=O [PHENYLBUTAZONE]; 20.67
6. COc1ccccc1OCC(O)COC(N)=O (stereo not given) [METHOCARBAMOL]; 18
7. CCOC(=O)[C@H](CCc1ccccc1)N[C@@H](C)C(=O)N1Cc2ccccc2C[C@H]1C(=O)O; 17
8. CC(C)(Sc1cc(C(C)(C)C)c(O)c(C(C)(C)C)c1)Sc1cc(C(C)(C)C)c(O)c(C(C)(C)C)c1 [PROBUCOL]; 20
9. Nc1cccc(Cl)c1 [3-CHLOROANILINE]; 13
10. C[C@@H]1CC[C@H]2[C@@H](C)C(=O)O[C@@H]3O[C@@]4(C)CC[C@@H]1[C@]32OO4 [ARTEMISININ]; 18

----------
# Species on record: Rattus norvegicus
# procedure-text: DrugMatrix - Regimen: Daily Repeat
# Assay type: toxicity, organism-based, Sprague-Dawley
# Design: regimen Daily Repeat, gender Male, age 6-8 weeks
# measurement-parameters: in vivo, po, 100 mg/kg, 72 h, tissue Plasma, route oral GAVAGE, dose level Low, time 3 day, vehicle .5 % CMC
measurement-kind: ALKALINE PHOSPHATASE (u/L)

1. CC[C@]1(O)CC[C@H]2[C@@H]3CCC4=CCCC[C@@H]4[C@H]3CC[C@@]21C; 426
2. C#C[C@]1(O)CC[C@H]2[C@@H]3CCC4=Cc5oncc5C[C@]4(C)[C@H]3CC[C@@]21C; 377
3. Nc1nc2c(c(=O)[nH]1)N(C=O)C(CNc1ccc(C(=O)N[C@@H](CCC(=O)O)C(=O)O)cc1)CN2 (some centres undefined); 427.33
4. CC=Cc1ccc(O)c(OC)c1; 338.67

----------
# Species: Rattus norvegicus
# procedure-text: DrugMatrix - Regimen: Daily Repeat
# Type: toxicity, organism-based, Sprague-Dawley
# Design: regimen Daily Repeat, gender Male, age 6-8 weeks
# measurement-parameters: in vivo, po, 0 mg/kg, 120 h, tissue Blood, route oral GAVAGE, dose level Control, time 5 day, vehicle 100 % WATER
Catalogue of MONOCYTE values
measurement-kind: MONOCYTE (%)

1) CNS(=O)(=O)Cc1ccc2[nH]cc(CCN(C)C)c2c1; 1.67
2) O=C(O)c1cc(=O)c2c(OCC(O)COc3cccc4oc(C(=O)O)cc(=O)c34)cccc2o1; 1.83
3) Nc1ccc(S(=O)(=O)Nc2ncccn2)cc1; 3
4) O=P1(N(CCCl)CCCl)NCCCO1 (stereo unspecified) [CYCLOPHOSPHAMIDE ANHYDROUS]; 0.67
5) CC(C)(C)NC[C@H](O)COc1nsnc1N1CCOCC1; 1
6) CCCCCCCCCCCCCCCC[n+]1ccccc1.[Br-]; 0.83
7) CN1C2CCCC1CC(NC(=O)c1nn(C)c3ccccc13)C2 (stereo unspecified); 1
8) CCN[C@@H](C)Cc1cccc(C(F)(F)F)c1; 3
9) CCCc1nn(C)c2c(=O)[nH]c(-c3cc(S(=O)(=O)N4CCN(C)CC4)ccc3OCC)nc12; 0.17
10) O=C(O)c1cccnc1; 1
11) OCCO; 0.17

----------
Catalogue of NEUTROPHIL values
# Species: Rattus norvegicus
# procedure-text: DrugMatrix - Regimen: Daily Repeat
# Type: toxicity, organism-based, Sprague-Dawley
# Set-up: regimen Daily Repeat, gender Male, age 6-8 weeks
# measurement-parameters: in vivo, po, 0 mg/kg, 72 h, tissue Blood, route oral GAVAGE, dose level Control, time 3 day, vehicle 100 % SALINE
measurement-kind: NEUTROPHIL (%)

1) CCCc1nn(C)c2c(=O)[nH]c(-c3cc(S(=O)(=O)N4CCN(C)CC4)ccc3OCC)nc12; 6.17
2) Oc1ccccc1O [CATECHOL]; 7
3) CC(=O)OCC(CCn1cnc2cnc(N)nc21)COC(C)=O [FAMCICLOVIR]; 6.17
4) Cc1cc(CC(=O)O)n(C)c1C(=O)c1ccc(Cl)cc1 [ZOMEPIRAC]; 7

----------
Catalogue of HEMOGLOBIN values
# Species: Rattus norvegicus
# procedure-text: DrugMatrix - Regimen: Daily Repeat
# Type: toxicity, organism-based, Sprague-Dawley
# Design: regimen Daily Repeat, gender Male, age 6-8 weeks
# measurement-parameters: in vivo, po, 1500 mg/kg, 120 h, tissue Blood, route oral GAVAGE, dose level High, time 5 day, vehicle .5 % CMC
measurement-kind: HEMOGLOBIN (G/DL)

1. CCOC(=O)[C@H](CCc1ccccc1)N[C@@H](C)C(=O)N1CCC[C@H]1C(=O)O; 15.13
2. Nc1nc2c(c(=O)[nH]1)N(C=O)C(CNc1ccc(C(=O)N[C@@H](CCC(=O)O)C(=O)O)cc1)CN2 (stereo not given in full) [LEUCOVORIN]; 14.17
3. O=c1cc(-c2ccccc2)oc2ccc3ccccc3c12 [BETA-NAPHTHOFLAVONE]; 13.33
4. C[C@@H](O)[C@H]1C(=O)N2C(C(=O)O)=C(S[C@@H]3CN[C@H](C(=O)N(C)C)C3)[C@H](C)[C@H]12 [MEROPENEM]; 13.67
5. CC(C)(Sc1cc(C(C)(C)C)c(O)c(C(C)(C)C)c1)Sc1cc(C(C)(C)C)c(O)c(C(C)(C)C)c1 [PROBUCOL]; 13.07
